Where these numbers come from: patent US8471005B2

Please respond with reported pIC50 for every item in the list.
# tested system: ALK (Homo sapiens)
# Construct: host or cells: baculovirus expression system
# experimental details: ALK Kinase Assay (ELISA/TRF, PLC-γ substrate)
# Format: biochemical
# condition info: ALK Kinase Inhibition; read-out: ALK Potency
pIC50: −log10 of the molar value.

Field pIC50 (entry `CN1C(=O)Cc2cc(Nc3ncc4ccc(-c5cccc(NS(C)(=O)=O)c5)n4n3)ccc21` ) reads 6.00 to 7.00

Field pIC50 (entry `CN1CCN(c2ccc(Nc3ncc4ccc(-c5ccc(S(=O)(=O)N(C)C)cc5)n4n3)cc2)CC1` ) reads 6.00 to 7.00

Field pIC50 (entry `COc1ccccc1-c1ccc2cnc(Nc3ccc(N4CCC(CN5CCN(C)CC5)CC4)cc3)nn12` ) reads > 7.00

Field pIC50 (entry `CN1CCN(c2ccc(Nc3ncc4ccc(-c5cccc(C(=O)N6CCCC6)c5)n4n3)cc2)CC1` ) reads 6.00 to 7.00

Field pIC50 (entry `COc1ccccc1NCc1ccc2cnc(Nc3ccc(N4CCOCC4)cc3)nn12` ) reads < 5.00

Field pIC50 (entry COCC(C)Oc1ncc2ccc(-c3ccc(S(C)(=O)=O)cc3)n2n1 (stereo not shown) ) reads < 5.00

Field pIC50 (entry `CC(C)(C)NS(=O)(=O)c1cccc(-c2ccc3cnc(Nc4ccc(-c5cnco5)cc4)nn23)c1` ) reads 5.00 to 6.00

Field pIC50 (entry `CN1CCN(C(=O)c2cccc(Nc3ncc4ccc(-c5cccnc5)n4n3)c2)CC1` ) reads 5.00 to 6.00

Field pIC50 (entry `CC(C)(C)NS(=O)(=O)c1cccc(-c2ccc3cnc(Nc4ccc5nc(CN6CCN(CCO)CC6)[nH]c5c4)nn23)c1` ) reads 6.00 to 7.00

Field pIC50 (entry `COc1ccc(Nc2ncc3ccc(-c4cccnc4)n3n2)cc1N1CCOCC1` ) reads 6.00 to 7.00

Field pIC50 (entry `CS(=O)(=O)c1cccc(-c2ccc3cnc(Nc4cccc(N5CCOCC5)c4)nn23)c1` ) reads 5.00 to 6.00

Field pIC50 (entry `CC(=O)Nc1cccc(Nc2ncc3ccc(-c4ccccc4N(C)S(C)(=O)=O)n3n2)c1` ) reads 6.00 to 7.00

Field pIC50 (entry `COc1cc(N2CCN(C3CCOCC3)CC2)ccc1Nc1ncc2ccc(-c3ccccc3OC)n2n1` ) reads > 7.00

Field pIC50 (entry `O=C(c1ccc(-c2ccc3cnc(Nc4ccc(N5CCOCC5)cc4)nn23)cc1)N1CCOCC1` ) reads 6.00 to 7.00

Field pIC50 (entry `CC(=O)Nc1cccc(Nc2ncc3ccc(-c4ccccc4NS(C)(=O)=O)n3n2)c1` ) reads 5.00 to 6.00

Field pIC50 (entry `CN1CCN(C(=O)C(F)(F)c2ccc(Nc3ncc4ccc(-c5cccc(S(=O)(=O)NC(C)(C)C)c5)n4n3)cc2)CC1` ) reads 6.00 to 7.00

###

# tested system: ALK (Homo sapiens, UniProt Q9UM73)
# Construct: host or cells: baculovirus expression system
# Sequence (Q9UM73 19-1620): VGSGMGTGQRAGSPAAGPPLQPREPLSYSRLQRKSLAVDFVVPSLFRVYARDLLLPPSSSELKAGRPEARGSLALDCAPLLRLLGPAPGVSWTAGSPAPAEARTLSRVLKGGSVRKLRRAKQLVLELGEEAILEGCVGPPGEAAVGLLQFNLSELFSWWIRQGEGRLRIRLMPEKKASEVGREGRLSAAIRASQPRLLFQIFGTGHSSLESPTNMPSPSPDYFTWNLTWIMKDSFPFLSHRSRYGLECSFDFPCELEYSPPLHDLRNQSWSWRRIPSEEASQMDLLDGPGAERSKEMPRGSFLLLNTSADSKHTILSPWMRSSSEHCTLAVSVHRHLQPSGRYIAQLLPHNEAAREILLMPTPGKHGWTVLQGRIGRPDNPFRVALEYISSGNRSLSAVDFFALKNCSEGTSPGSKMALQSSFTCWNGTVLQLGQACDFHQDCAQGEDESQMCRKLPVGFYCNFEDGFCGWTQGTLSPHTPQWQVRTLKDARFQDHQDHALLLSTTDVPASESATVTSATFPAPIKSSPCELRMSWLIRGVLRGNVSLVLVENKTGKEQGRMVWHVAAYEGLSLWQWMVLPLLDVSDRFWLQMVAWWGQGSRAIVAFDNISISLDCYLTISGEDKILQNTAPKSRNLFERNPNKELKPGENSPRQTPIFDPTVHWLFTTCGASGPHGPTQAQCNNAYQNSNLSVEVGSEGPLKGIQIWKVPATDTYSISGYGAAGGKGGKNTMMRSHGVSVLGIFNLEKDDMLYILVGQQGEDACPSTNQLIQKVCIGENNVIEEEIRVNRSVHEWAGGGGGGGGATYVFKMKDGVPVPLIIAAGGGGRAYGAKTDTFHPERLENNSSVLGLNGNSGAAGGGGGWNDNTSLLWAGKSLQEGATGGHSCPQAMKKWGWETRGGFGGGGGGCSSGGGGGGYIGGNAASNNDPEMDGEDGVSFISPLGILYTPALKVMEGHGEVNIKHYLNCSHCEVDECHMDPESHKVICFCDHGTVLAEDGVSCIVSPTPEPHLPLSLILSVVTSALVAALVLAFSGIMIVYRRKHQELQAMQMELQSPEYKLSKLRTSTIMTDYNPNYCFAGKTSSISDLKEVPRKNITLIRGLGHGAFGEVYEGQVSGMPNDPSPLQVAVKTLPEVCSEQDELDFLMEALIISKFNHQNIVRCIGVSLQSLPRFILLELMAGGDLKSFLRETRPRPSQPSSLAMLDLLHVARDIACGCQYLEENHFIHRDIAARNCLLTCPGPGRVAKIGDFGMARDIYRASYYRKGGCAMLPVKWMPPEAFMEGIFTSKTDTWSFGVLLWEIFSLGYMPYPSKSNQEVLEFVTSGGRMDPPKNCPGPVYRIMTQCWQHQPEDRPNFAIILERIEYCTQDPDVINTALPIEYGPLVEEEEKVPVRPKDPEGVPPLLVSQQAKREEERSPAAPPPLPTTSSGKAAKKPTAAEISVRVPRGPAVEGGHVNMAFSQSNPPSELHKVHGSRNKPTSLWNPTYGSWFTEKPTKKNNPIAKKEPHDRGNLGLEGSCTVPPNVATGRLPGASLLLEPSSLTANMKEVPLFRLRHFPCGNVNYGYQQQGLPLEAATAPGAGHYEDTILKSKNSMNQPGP
# experimental details: ALK Kinase Assay (ELISA/TRF, PLC-γ substrate)
# Type: biochemical
# condition info: ALK Kinase Inhibition; read-out: ALK Potency
pIC50: −log10 of the molar value.
Please respond with reported pIC50 for every item in the list.

Field pIC50 (entry `CN1CCN(c2ccc(Nc3ncc4ccc(-c5cccc(S(=O)(=O)NC(C)(C)C)c5)n4n3)cc2Cl)CC1` ) reads > 7.00

Field pIC50 (entry CS(=O)(=O)c1ccc(-c2ccc3cnc(Nc4ccc(N5CCCC(N6CCOCC6)C5)cc4)nn23)cc1 (stereo not shown) ) reads 6.00 to 7.00

Field pIC50 (entry `COc1cc(N2CCC(N3CCOCC3)CC2)ccc1Nc1ncc2ccc(-c3cccc(N(C)S(C)(=O)=O)c3)n2n1` ) reads > 7.00

Field pIC50 (entry `COc1cc(N2CCN(C)CC2)ccc1Nc1ncc2ccc(-c3cc(S(=O)(=O)N(C)C)ccc3C)n2n1` ) reads 6.00 to 7.00

###

# tested system: ALK (Homo sapiens, UniProt Q9UM73)
# Construct: host or cells: baculovirus expression system
# experimental details: ALK Kinase Assay (ELISA/TRF, PLC-γ substrate)
# Type: biochemical
# condition info: ALK kinase inhibition, 1 μM ATP; read-out: ALK Potency
measured property: IC50

Reported IC50 (ALK (Homo sapiens, UniProt Q9UM73)) for entry CN1CCN(c2ccc(Nc3ncc4ccc(-c5cccc(N6CCNCC6)c5)n4n3)cc2)CC1 [Example 1169] is 100 to 1000 nM

Reported IC50 (ALK (Homo sapiens, UniProt Q9UM73)) for entry CC(C)(C)NS(=O)(=O)c1cccc(-c2ccc3cnc(Nc4ccc(C5CCNCC5O)cc4)nn23)c1 (centres unmarked) [Example 1014] is < 100 nM

Reported IC50 (ALK (Homo sapiens, UniProt Q9UM73)) for entry Cn1cc(-c2ccc3cnc(N4CCC(Oc5cccc(N)c5)CC4)nn23)cn1 [Example 598] is > 10000 nM

Reported IC50 (ALK (Homo sapiens, UniProt Q9UM73)) for entry CCN1CCOC(c2ccc(Nc3ncc4ccc(-c5cnn(C)c5)n4n3)cc2)C1 (centres unmarked) [Example 1189] is 100 to 1000 nM

Reported IC50 (ALK (Homo sapiens, UniProt Q9UM73)) for entry CN(c1ccccc1-c1ccc2cnc(Nc3ccc(Cn4ccnc4)cc3)nn12)S(C)(=O)=O [Example 621] is < 100 nM

Reported IC50 (ALK (Homo sapiens, UniProt Q9UM73)) for entry COc1cc(C2CCN(CC(=O)N(C)C)CC2)ccc1Nc1ncc2ccc(-c3ccccc3N(C)S(C)(=O)=O)n2n1 [Example 810] is < 100 nM

Reported IC50 (ALK (Homo sapiens, UniProt Q9UM73)) for entry COc1ccccc1-c1ccc2cnc(Nc3ccc4ncn(CCN5CCOCC5)c4c3)nn12 [Example 1349] is 100 to 1000 nM

Reported IC50 (ALK (Homo sapiens, UniProt Q9UM73)) for entry Fc1ncccc1-c1ccc2cnc(Nc3ccc(N4CCOCC4)cc3)nn12 [Example 1040] is 100 to 1000 nM

###

# tested system: ALK (Homo sapiens)
# Construct: host or cells: baculovirus expression system
# experimental details: ALK Kinase Assay (ELISA/TRF, PLC-γ substrate)
# Assay type: biochemical
# condition info: ALK kinase inhibition, 1 μM ATP; read-out: ALK Potency
pIC50: −log10 of the molar value.
Please respond with reported pIC50 for every item in the list.

Field pIC50 (entry `CN1CCC(c2ccc(Nc3ncc4ccc(-c5cccc(S(=O)(=O)NCc6ccccc6)c5)n4n3)cc2)CC1` ) reads 6.00 to 7.00

Field pIC50 (entry `COc1cc2c(cc1Nc1ncc3ccc(-c4ccccc4OC)n3n1)CN(CC(N)=O)C2` ) reads > 7.00

Field pIC50 (entry `Cn1cc(-c2ccc3cnc(Nc4cccc(OCCN5CCOCC5)c4)nn23)cn1` ) reads 5.00 to 6.00

Field pIC50 (entry `O=S(=O)(c1cccc(-c2ccc3cnc(Nc4ccc(C5CCN(CCO)CC5)cc4)nn23)c1)N1CCCC1` ) reads 6.00 to 7.00

Field pIC50 (entry `COc1ccc(C2CCN(C)CC2)cc1Nc1ncc2ccc(-c3ccccc3N(C)S(C)(=O)=O)n2n1` ) reads > 7.00

Field pIC50 (entry `CC(=O)Nc1cccc(Nc2ncc3ccc(-c4cccn4CCC#N)n3n2)c1` ) reads 5.00 to 6.00

Field pIC50 (entry `COc1ccc(-c2ccc3cnc(Nc4ccn(CC(=O)N5CCOCC5)n4)nn23)cn1` ) reads < 5.00

Field pIC50 (entry `Cc1cc(Nc2ncc3ccc(-c4cccc(S(C)(=O)=O)c4)n3n2)ccc1C1CCN(C)CC1` ) reads > 7.00

###

# tested system: JAK2 (Homo sapiens, UniProt O60674)
# Construct: host or cells: baculovirus expression system
# Sequence (O60674 whole entry): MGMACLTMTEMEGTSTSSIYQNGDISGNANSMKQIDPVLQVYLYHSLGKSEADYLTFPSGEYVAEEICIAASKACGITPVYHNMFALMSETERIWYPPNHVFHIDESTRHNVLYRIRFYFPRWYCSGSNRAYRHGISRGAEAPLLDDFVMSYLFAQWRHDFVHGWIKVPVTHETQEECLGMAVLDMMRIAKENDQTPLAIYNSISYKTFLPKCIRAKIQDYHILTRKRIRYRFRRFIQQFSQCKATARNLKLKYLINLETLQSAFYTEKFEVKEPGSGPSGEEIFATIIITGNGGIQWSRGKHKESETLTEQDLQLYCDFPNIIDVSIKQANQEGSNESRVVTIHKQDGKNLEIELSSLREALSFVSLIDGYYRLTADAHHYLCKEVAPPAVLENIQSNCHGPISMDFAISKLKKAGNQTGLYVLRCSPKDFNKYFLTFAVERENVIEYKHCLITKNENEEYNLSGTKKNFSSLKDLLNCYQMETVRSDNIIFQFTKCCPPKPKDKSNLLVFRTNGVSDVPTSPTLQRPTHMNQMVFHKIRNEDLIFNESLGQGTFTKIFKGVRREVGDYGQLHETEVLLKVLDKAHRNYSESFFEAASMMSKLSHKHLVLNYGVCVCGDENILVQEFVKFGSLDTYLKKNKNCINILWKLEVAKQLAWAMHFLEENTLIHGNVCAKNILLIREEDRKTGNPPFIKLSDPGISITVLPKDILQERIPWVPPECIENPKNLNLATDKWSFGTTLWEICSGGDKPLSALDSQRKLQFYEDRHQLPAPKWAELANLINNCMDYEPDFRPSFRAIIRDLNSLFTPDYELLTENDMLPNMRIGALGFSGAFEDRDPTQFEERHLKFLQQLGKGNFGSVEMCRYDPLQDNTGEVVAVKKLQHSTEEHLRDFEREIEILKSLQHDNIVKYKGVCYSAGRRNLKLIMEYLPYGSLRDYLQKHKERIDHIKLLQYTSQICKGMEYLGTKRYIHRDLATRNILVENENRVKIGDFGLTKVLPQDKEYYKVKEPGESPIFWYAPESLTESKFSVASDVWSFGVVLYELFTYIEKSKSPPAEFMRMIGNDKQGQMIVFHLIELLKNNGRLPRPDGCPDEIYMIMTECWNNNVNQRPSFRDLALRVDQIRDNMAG
# experimental details: Recombinant Human JAK2 Kinase Assay (TRF)
# Type: biochemical
# condition info: JAK2 kinase inhibition, 0.2 μM ATP; read-out: JAK2 Potency
pIC50: −log10 of the molar value.
measured property: pIC50

Reported pIC50 (JAK2 (Homo sapiens, UniProt O60674)) for entry `CN1CCN(c2ccc(Nc3ncc4ccc(-c5ccc(CN6CCS(=O)(=O)CC6)nc5)n4n3)cc2)CC1` is > 7.00

Reported pIC50 (JAK2 (Homo sapiens, UniProt O60674)) for entry `CN1CCN(c2ccc(Nc3ncc4ccc(-c5cccc(S(C)(=O)=O)c5)n4n3)cn2)CC1` is > 7.00

Reported pIC50 (JAK2 (Homo sapiens, UniProt O60674)) for entry `COc1ccc(-c2ccn3nc(Nc4ccc(N5CCN(C)CC5)cc4)ncc23)cc1` is < 5.00

Reported pIC50 (JAK2 (Homo sapiens, UniProt O60674)) for entry `COc1ccccc1-c1ccc2cnc(Nc3ccc4c(c3)ncn4CCN3CCOCC3)nn12` is > 7.00

Reported pIC50 (JAK2 (Homo sapiens, UniProt O60674)) for entry `CN(c1ccccc1-c1ccc2cnc(Nc3ccc4nc(C(C)(C)C)[nH]c4c3)nn12)S(C)(=O)=O` is > 7.00

Reported pIC50 (JAK2 (Homo sapiens, UniProt O60674)) for entry `CN(c1ccccc1-c1ccc2cnc(Nc3ccncc3)nn12)S(C)(=O)=O` is > 7.00

Reported pIC50 (JAK2 (Homo sapiens, UniProt O60674)) for entry COc1cc(C2CCCN(C)C2)ccc1Nc1ncc2ccc(-c3ccccc3OC)n2n1 (stereo not shown) is 6.00 to 7.00

Reported pIC50 (JAK2 (Homo sapiens, UniProt O60674)) for entry COc1cc([C@@]2(O)CCN(CCF)C[C@@H]2O)ccc1Nc1ncc2ccc(-c3ccccc3OC)n2n1 (racemic) is > 7.00

Reported pIC50 (JAK2 (Homo sapiens, UniProt O60674)) for entry `CN1CCN(c2ncc3ccc(-c4ccccc4N(C)S(C)(=O)=O)n3n2)CC1` is 6.00 to 7.00

Reported pIC50 (JAK2 (Homo sapiens, UniProt O60674)) for entry `COc1cc(N2CCC(N3CCOCC3)CC2)ccc1Nc1ncc2ccc(-n3cccn3)n2n1` is 5.00 to 6.00

Reported pIC50 (JAK2 (Homo sapiens, UniProt O60674)) for entry `COc1cc(OC2CCN(C)CC2)ccc1Nc1ncc2ccc(-c3ccccc3N(C)S(C)(=O)=O)n2n1` is 6.00 to 7.00

Reported pIC50 (JAK2 (Homo sapiens, UniProt O60674)) for entry `Cn1cc(-c2ccc3cnc(Nc4cccc(N5CCCC5=O)c4)nn23)cn1` is > 7.00

Reported pIC50 (JAK2 (Homo sapiens, UniProt O60674)) for entry `CC(C)(C)NS(=O)(=O)c1cccc(-c2ccc3cnc(Nc4ccc(=O)[nH]c4)nn23)c1` is > 7.00

Reported pIC50 (JAK2 (Homo sapiens, UniProt O60674)) for entry COc1cc(C2CCNCC2O)ccc1Nc1ncc2ccc(-c3cccc4c3OCC4)n2n1 (stereo not shown) is > 7.00

Reported pIC50 (JAK2 (Homo sapiens, UniProt O60674)) for entry `CCc1nc2ccc(Nc3ncc4ccc(-c5cccc(S(=O)(=O)NC(C)(C)C)c5)n4n3)cc2[nH]1` is > 7.00

Reported pIC50 (JAK2 (Homo sapiens, UniProt O60674)) for entry `Cc1cc(-c2ccc3cnc(Nc4ccc(N5CCOCC5)cc4)nn23)cnc1F` is > 7.00
